B1: Intersectin-1, residues 1156 to 1213; numbered along this chain, Q15811 (parent)
chain: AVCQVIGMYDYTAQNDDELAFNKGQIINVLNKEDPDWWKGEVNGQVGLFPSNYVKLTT

- Variants of: B1
- measurement notes: abundance fitness (aPCA) (normalised: wild type 0, dead -1); higher = more abundant; growth selection in yeast, the domain comes from the species named
- test context: Homo sapiens
Let's look at some variants and their measured abundance fitness.

{"residues": "AVCQVIGMYDYTAQNDDELAFNKGQIINCLNKEDPDWWKGEVNGQVGLFPSNYVKLTT", "abundance fitness": -0.219}
{"residues": "AVCQVIGMYDYTAQNDDELAFNKGQIINVLNKEDPDWWKGEVNGQRGLFPSNYVKLTT", "abundance fitness": -0.375}
{"residues": "AVCQVIPMYDYTAQNDDELAFNKGQIINVLNKEDPDWWKGEVNGQVGLFPSNYVKLTT", "abundance fitness": -0.519}
{"residues": "AVCQVIGMYDYTDQNDDELAFNKGQIINVLNKEDPDWWKGEVNGQVGLFPSNYVKLTT", "abundance fitness": -0.944}
{"residues": "AVCQVIGMYDMTAQNDDELAFNKGQIINVLNKEDPDWWKGEVNGQVGLFPSNYVKLTT", "abundance fitness": -0.698}

AVCQVIGMYDYTAQNDDELAFNKGQIINVLNKEDPDWWKGEVNGQVGLFDSNYVKLTT has a reported abundance fitness of -0.507

Record AVCQVIGMYDYTAQKDDELAFNKGQIINVLNKEDPDWWKGEVNGQVGLFPSNYVKLTT , field abundance fitness: 0.047

Reported abundance fitness ( AVCQVIGMYDYTAQNDDELAFNKIQIINVLNKEDPDWWKGEVNGQVGLFPSNYVKLTT ) = -0.682

Per the record, AVCQVIGMYDYTAQNDDELAFNKGQIINVLTKEDPDWWKGEVNGQVGLFPSNYVKLTT has abundance fitness of -0.159

Briefly, abundance fitness measured for AVCQVIGMYDYTAQNDDELAFNKGQIINVLNKEQPDWWKGEVNGQVGLFPSNYVKLTT : -0.489

get_value(item= AVCQVIGMYDYTAQNDDELAFNKGQIINVLNKEDPDWWKGEVNGQWGLFPSNYVKLTT , readout=abundance fitness) returns -0.892

Reported abundance fitness ( AVCQVIGMYDYTAQNDDELAFNKGQMINVLNKEDPDWWKGEVNGQVGLFPSNYVKLTT ) = -0.462

So, AVCQVIGMYDYTAQNDDELAFNKMQIINVLNKEDPDWWKGEVNGQVGLFPSNYVKLTT ? Its abundance fitness was -0.693

Query AVCQVIGMYDTTAQNDDELAFNKGQIINVLNKEDPDWWKGEVNGQVGLFPSNYVKLTT yields abundance fitness of -0.555
